A collection of molecules and their measured phospho-S6 immunofluorescence (z-score)
System: MDA-MB-468
Assay: phospho-S6 immunofluorescence (DAPI-normalised), per-plate z-score; higher = higher phospho-S6 signal (less pathway suppression)
Conditions: co-treatment: GDC0941 450 nM; 24 h
Where a name gives a salt, the structure may show the parent alone.
Answer with a bare number; do not write a unit.

For orientation, consider the following solved cases.
| molecule | quantitative result |
| --- | --- |
| C=CCc1ccccc1OCC(O)CNC(C)C (centres undefined) [Alprenolol (hydrochloride)] (compound 10 µM) | 0.45 |
| Cc1ccc(Sc2ccccc2N2CCNCC2)c(C)c1 [Vortioxetine (hydrobromide)] (compound 10 µM) | -5.79 |
| Cc1cc2c(cc1Cl)N(C(=O)Nc1ccc(Oc3cccnc3C)nc1)CC2 (compound 10 µM) | -3.98 |

According to the records, this molecule OC[C@H]1O[C@@H](n2cnc3c(N[C@@H]4CCc5ccccc54)ncnc32)[C@H](O)[C@@H]1O (compound 10 µM) displays phospho-S6 immunofluorescence (z-score) of 1.19
